# ASSAY_SYSTEM: Human CD27, full length on the cell surface (human, UniProt P26842 21-260)
# Sequence (P26842 21-260 H233R): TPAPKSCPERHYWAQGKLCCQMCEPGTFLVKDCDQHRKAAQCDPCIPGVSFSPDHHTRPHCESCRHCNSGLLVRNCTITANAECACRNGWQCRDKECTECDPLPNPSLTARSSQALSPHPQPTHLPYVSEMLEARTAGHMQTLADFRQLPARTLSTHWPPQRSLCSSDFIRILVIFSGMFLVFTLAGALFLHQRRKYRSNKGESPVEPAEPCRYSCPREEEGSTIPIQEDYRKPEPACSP
# ASSAY: cell-based or functional assay
READOUT_NAME: NFkB IC50 (nM)
Give just the number in nM; leave the unit off.

M41 (antibody, human IgG1, V domains shown, chimeric; also called C2191 parent; C2191 parent chimera) VH: EVKLVESGGGLVKPGGSLKLSCAASGFTFSSYTMSWVRQTPEKRLEWVAYISSGGGNTYYPDSVKGRFTISRDNARNTLYLQMSSLRSEDTAMYYCSRHRGNPFDYWGQGTTLTVSS VL: DIVLTQSPASLAVSLGQRATISCRASKSVSTSGYSFMHWYQQKPGQPPKLLIYLASNLESGVPARFSGSGSGTDFTLNIHPVEEEDAATYYCQHSRELPWTFGGGTKLEIK	0.045

Data request: Supply reported NFkB IC50 belonging to this binder: M427 (antibody, IgG1, V domains shown, also called H227/L244; C27H227/C27L244) VH: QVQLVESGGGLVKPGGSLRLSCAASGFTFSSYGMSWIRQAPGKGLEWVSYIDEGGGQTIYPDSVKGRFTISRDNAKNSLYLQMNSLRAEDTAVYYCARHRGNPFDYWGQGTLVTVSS VL: DIQMTQSPSSLSASVGDRVTITCRASKSVSAWGYSFMHWYQQKPGKAPKLLIYVASRLESGVPSRFSGSGSGTDFTFTISSLQPEDIATYYCQHSRELPWTFGQGTKVEIK
Data returned: 0.019

Data request: Supply reported NFkB IC50 belonging to this binder: M429 (antibody, IgG1, V domains shown, also called H227/L245) VH: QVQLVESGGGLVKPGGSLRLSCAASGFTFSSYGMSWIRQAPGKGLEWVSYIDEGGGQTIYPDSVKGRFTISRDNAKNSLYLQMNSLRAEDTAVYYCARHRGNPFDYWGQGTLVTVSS VL: DIQMTQSPSSLSASVGDRVTITCRASKSVSHVRWSFMHWYQQKPGKAPKLLIYLASKLESGVPSRFSGSGSGTDFTFTISSLQPEDIATYYCQHSRELPWTFGQGTKVEIK
Data returned: 0.042
